# System: HEK-293T
# assay.name: Multiplex assay against HEK293T
# Assay type: toxicity, cell-based
# study.conditions: human, 48 h, 10 µM, compound concentration 10 uM, replicate 2
Provide the reported Population Pyknosed Nuclei (%) of each item.
Numeric answer only, unit % assumed.

Checklist item: Population Pyknosed Nuclei (%) tested on HEK-293T, entry COc1ccccc1CN[C@H]1C2CCN(CC2)[C@H]1C(c1ccccc1)c1ccccc1 , value? 25

Provide value of Population Pyknosed Nuclei (%) for this record tested with HEK-293T: CC(C)c1noc(N2CCC(COc3ccc(-c4ccc(S(C)(=O)=O)cc4)nc3)CC2)n1 28

So what Population Pyknosed Nuclei (%) did CC(C)Oc1ccccc1C(=O)Nc1ccccc1C(=O)Nc1cccc(S(=O)(=O)C(F)(F)F)c1 get with HEK-293T? 56

Given the entry C#Cc1cccc(Nc2ncnc3cc(OCCOC)c(OCCOC)cc23)c1 , what Population Pyknosed Nuclei (%) was observed with HEK-293T? 38

Reported Population Pyknosed Nuclei (%) for HEK-293T, given CCc1nn(CCCN2CCN(c3cccc(Cl)c3)CC2)c(=O)n1CCOc1ccccc1.Cl [NEFAZODONE HYDROCHLORIDE] ? 65

Report Population Pyknosed Nuclei (%) for COc1cc2ncn(-c3cc(OCc4ccccc4C(F)(F)F)c(C(N)=O)s3)c2cc1OC [GW843682X] tested on HEK-293T. 50

Please tell me: Population Pyknosed Nuclei (%) of O=c1cc(N2CCOCC2)oc2c(-c3cccc4c3sc3ccccc34)cccc12 , system HEK-293T? 62

Please provide the recorded Population Pyknosed Nuclei (%) for COc1ccc(-c2ccc3ncc4c(c3c2)n(-c2ccc(N3CCNCC3)c(C(F)(F)F)c2)c(=O)n4C)cn1.O=C(O)/C=C\C(=O)O , tested on HEK-293T. 24

---

# System: HEK-293T
# assay.name: Multiplex assay against HEK293T
# Type: toxicity, cell-based
# study.conditions: human, 24 h, 1 µM, compound concentration 1 uM, replicate 2
Kindly state Total Cell Count for each of the entries shown.
Just the number.

Query (compound): CC(C)Oc1ccccc1C(=O)Nc1ccccc1C(=O)Nc1cccc(S(=O)(=O)C(F)(F)F)c1 ; field requested: Total Cell Count 253

Quick one: Total Cell Count for COc1ccc(-c2ccc3ncc4c(c3c2)n(-c2ccc(N3CCNCC3)c(C(F)(F)F)c2)c(=O)n4C)cn1.O=C(O)/C=C\C(=O)O ? 169

Which Total Cell Count value belongs to CN1CCN(Cc2ccc(Nc3ncc(Cl)c(Nc4ccccc4S(=O)(=O)N(C)C)n3)cc2)CC1 ? 206

I would be grateful if you could share the reported Total Cell Count for CC(C)c1noc(N2CCC(COc3ccc(-c4ccc(S(C)(=O)=O)cc4)nc3)CC2)n1 . 270

Return reported Total Cell Count; argument: COc1ccccc1CN[C@H]1C2CCN(CC2)[C@H]1C(c1ccccc1)c1ccccc1 333

Quick one: Total Cell Count of CC1=C(C(=O)Nc2cc3cn[nH]c3cc2F)C(c2ccc(C(F)(F)F)cc2)CC(=O)N1 (stereo not drawn) ? 274

I have this compound here, COc1cc2ncn(-c3cc(OCc4ccccc4C(F)(F)F)c(C(N)=O)s3)c2cc1OC [GW843682X] , and I need its recorded Total Cell Count. 205

Look up Total Cell Count: Cc1ccc2c(c1)c1c(n2CCc2ccc(C)nc2)CCN(C)C1 [LATREPIRDINE] 271

Values from ChEMBL document CHEMBL4689842
